Data credit: ChEMBL document CHEMBL3397007

# system: Cannabinoid receptor 1 (Homo sapiens)
# Sequence (P21554 whole entry): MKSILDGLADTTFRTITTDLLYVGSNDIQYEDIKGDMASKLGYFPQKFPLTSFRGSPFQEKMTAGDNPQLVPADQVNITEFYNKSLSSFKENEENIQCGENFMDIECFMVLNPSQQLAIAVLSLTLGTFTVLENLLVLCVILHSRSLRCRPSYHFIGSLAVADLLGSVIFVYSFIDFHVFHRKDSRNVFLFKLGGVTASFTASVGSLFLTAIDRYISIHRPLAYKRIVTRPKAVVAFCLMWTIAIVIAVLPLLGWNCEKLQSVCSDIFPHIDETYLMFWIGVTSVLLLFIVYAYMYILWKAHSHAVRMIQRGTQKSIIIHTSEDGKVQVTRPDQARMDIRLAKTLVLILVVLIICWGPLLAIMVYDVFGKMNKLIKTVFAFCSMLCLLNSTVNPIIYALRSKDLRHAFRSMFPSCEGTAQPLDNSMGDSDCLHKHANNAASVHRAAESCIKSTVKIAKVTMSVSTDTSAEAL
# run_description: Displacement of [3H]CP55,940 from human recombinant CB1 receptor expressed in HEK293 cell membranes after 90 mins
readout_kind: pKi
Keep it numeric: pKi is minus log10 of the concentration in mol/L.

Fill in: Cannabinoid receptor 1 (Homo sapiens) pKi for COc1c(C)cc(-c2ccc(F)cc2)cc1C(=O)N[C@H]1CC[C@@H](C)CC1 = 6.74

Fill in: Cannabinoid receptor 1 (Homo sapiens) pKi for CCCCc1cc(-c2ccc(OC)cc2)cc(C(=O)N[C@H]2CC[C@H](C)CC2)c1OC = 5.64

Fill in: Cannabinoid receptor 1 (Homo sapiens) pKi for CCCCc1cc(-c2ccc(OC)cc2)cc(C(=O)NC2CCCCCC2)c1OC = 5.83

Fill in: Cannabinoid receptor 1 (Homo sapiens) pKi for COc1c(C)cc(-c2ccccc2)cc1C(=O)N[C@H]1CC[C@@H](C)CC1 = 5.96

Fill in: Cannabinoid receptor 1 (Homo sapiens) pKi for COc1c(C)cc(-c2ccccc2)cc1C(=O)N[C@H]1CC[C@H](C)CC1 = 5.82

Fill in: Cannabinoid receptor 1 (Homo sapiens) pKi for COc1c(C)cc(-c2ccc(F)cc2)cc1C(=O)N[C@H]1CC[C@H](C)CC1 = 6.21

Fill in: Cannabinoid receptor 1 (Homo sapiens) pKi for CCCCc1cc(-c2ccc(OC)cc2)cc(C(=O)N[C@H]2CC[C@@H](C)CC2)c1OC = 5.81

Fill in: Cannabinoid receptor 1 (Homo sapiens) pKi for COc1c(C)cc(-c2ccccc2)cc1C(=O)NC1CCCCCC1 = 6.06

Fill in: Cannabinoid receptor 1 (Homo sapiens) pKi for COc1c(C)cc(-c2ccc(F)cc2)cc1C(=O)NC1CCCCCC1 = 6.80

* * *

# system: Cannabinoid receptor 2 (Homo sapiens)
# run_description: Displacement of [3H]CP55,940 from human recombinant CB2 receptor expressed in HEK293 cell membranes after 90 mins
readout_kind: pKi
Keep it numeric: pKi is minus log10 of the concentration in mol/L.

Reported pKi of CCCCc1cc(-c2ccc(OC)cc2)cc(C(=O)N[C@H]2CC[C@@H](C)CC2)c1OC : 7.66

Reported pKi of COc1c(C)cc(-c2ccccc2)cc1C(=O)NC1CCCCCC1 : 7.00

Reported pKi of COc1c(C)cc(-c2ccccc2)cc1C(=O)N[C@H]1CC[C@H](C)CC1 : 7.05

Reported pKi of COc1c(C)cc(-c2ccc(F)cc2)cc1C(=O)N[C@H]1CC[C@H](C)CC1 : 7.05

Reported pKi of COc1c(C)cc(-c2ccccc2)cc1C(=O)N[C@H]1CC[C@@H](C)CC1 : 6.82

Reported pKi of CCCCc1cc(-c2ccc(OC)cc2)cc(C(=O)N[C@H]2CC[C@H](C)CC2)c1OC : 6.84

Reported pKi of COc1c(C)cc(-c2ccc(F)cc2)cc1C(=O)NC1CCCCCC1 : 7.22

Reported pKi of CCCCc1cc(-c2ccc(OC)cc2)cc(C(=O)NC2CCCCCC2)c1OC : 7.94

Reported pKi of COc1c(C)cc(-c2ccc(F)cc2)cc1C(=O)N[C@H]1CC[C@@H](C)CC1 : 7.22

* * *

# system: Cannabinoid receptor 2 (Homo sapiens)
# run_description: Agonist activity at human CB2 receptor expressed in CHO cell membranes by [35S]GTPgammaS binding assay
For each entry below, report its pEC50 value.
Keep it numeric: pEC50 is minus log10 of the concentration in mol/L.

Reported pEC50 of COc1c(C)cc(-c2ccc(F)cc2)cc1C(=O)N[C@H]1CC[C@@H](C)CC1 : 6.40

Reported pEC50 of COc1c(C)cc(-c2ccc(F)cc2)cc1C(=O)NC1CCCCCC1 : 6.40

* * *

# System: HEK293
# run_description: Selectivity index, ratio of Ki for human recombinant CB1 receptor expressed in HEK293 cell membranes to Ki for human recombinant CB2 receptor expressed in HEK293 cell membranes
# Type: cell-based
Criterion met means recorded Ratio Ki is 20 or above; Criterion not met means it is below 20.

Asked: Could you tell me if the measured Ratio Ki of COc1c(C)cc(-c2ccc(F)cc2)cc1C(=O)NC1CCCCCC1 reaches 20 or more?
Given back: Criterion not met

Asked: Could you tell me if the measured Ratio Ki of COc1c(C)cc(-c2ccc(F)cc2)cc1C(=O)N[C@H]1CC[C@H](C)CC1 reaches 20 or more?
Given back: Criterion not met

Asked: Could you tell me if the measured Ratio Ki of CCCCc1cc(-c2ccc(OC)cc2)cc(C(=O)N[C@H]2CC[C@@H](C)CC2)c1OC reaches 20 or more?
Given back: Criterion met

Asked: Could you tell me if the measured Ratio Ki of COc1c(C)cc(-c2ccccc2)cc1C(=O)N[C@H]1CC[C@H](C)CC1 reaches 20 or more?
Given back: Criterion not met

Asked: Could you tell me if the measured Ratio Ki of COc1c(C)cc(-c2ccc(F)cc2)cc1C(=O)N[C@H]1CC[C@@H](C)CC1 reaches 20 or more?
Given back: Criterion not met

Asked: Could you tell me if the measured Ratio Ki of CCCC(C)(C)c1ccc2c(c1)OC(C)(C)[C@@H]1CC=C(C)C[C@@H]21 reaches 20 or more?
Given back: Criterion met

Asked: Could you tell me if the measured Ratio Ki of COc1c(C)cc(-c2ccccc2)cc1C(=O)N[C@H]1CC[C@@H](C)CC1 reaches 20 or more?
Given back: Criterion not met

Asked: Could you tell me if the measured Ratio Ki of COc1c(C)cc(-c2ccccc2)cc1C(=O)NC1CCCCCC1 reaches 20 or more?
Given back: Criterion not met

Asked: Could you tell me if the measured Ratio Ki of CCCCc1cc(-c2ccc(OC)cc2)cc(C(=O)N[C@H]2CC[C@H](C)CC2)c1OC reaches 20 or more?
Given back: Criterion not met

Asked: Could you tell me if the measured Ratio Ki of CCCCc1cc(-c2ccc(OC)cc2)cc(C(=O)NC2CCCCCC2)c1OC reaches 20 or more?
Given back: Criterion met

* * *

For each entry below, report its Ki value.
# system: Cannabinoid receptor 1 (Homo sapiens)
# run_description: Displacement of [3H]CP55,940 from human recombinant CB1 receptor expressed in HEK293 cell membranes after 90 mins

Reported Ki of COc1ccc(-c2cc(C)c(OC)c(C(=O)N[C@H]3CC[C@@H](C)CC3)c2)cc1 : > 10 µM

Reported Ki of COc1ccc(-c2cc(C)c(OC)c(C(=O)N[C@H]3CC[C@H](C)CC3)c2)cc1 : > 10 µM

Reported Ki of COc1ccc(-c2cc(C)c(OC)c(C(=O)NC3CCCCCC3)c2)cc1 : > 10 µM

* * *

# system: Cannabinoid receptor 2 (Homo sapiens, UniProt P34972)
# Sequence (P34972 whole entry): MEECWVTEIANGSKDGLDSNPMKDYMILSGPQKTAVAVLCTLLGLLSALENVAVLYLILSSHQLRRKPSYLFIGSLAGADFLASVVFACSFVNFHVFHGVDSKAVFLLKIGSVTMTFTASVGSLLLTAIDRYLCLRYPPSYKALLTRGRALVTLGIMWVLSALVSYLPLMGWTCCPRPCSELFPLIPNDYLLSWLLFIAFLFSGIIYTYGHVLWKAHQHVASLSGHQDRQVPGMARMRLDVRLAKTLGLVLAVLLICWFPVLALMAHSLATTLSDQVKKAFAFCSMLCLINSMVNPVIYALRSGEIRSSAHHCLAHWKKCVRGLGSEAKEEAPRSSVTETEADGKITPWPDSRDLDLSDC
# run_description: Displacement of [3H]CP55,940 from human recombinant CB2 receptor expressed in HEK293 cell membranes after 90 mins
For each entry below, report its Ki value.

Reported Ki of COc1ccc(-c2cc(C)c(OC)c(C(=O)NC3CCCCCC3)c2)cc1 : > 10 µM

Reported Ki of COc1ccc(-c2cc(C)c(OC)c(C(=O)N[C@H]3CC[C@H](C)CC3)c2)cc1 : > 10 µM

Reported Ki of COc1ccc(-c2cc(C)c(OC)c(C(=O)N[C@H]3CC[C@@H](C)CC3)c2)cc1 : > 10 µM
